# Tested on: human dermal papilla cells
# experimental_protocol: Promotion of proliferation of human dermal papilla cells (CellTiter-Glo Luminescent cell viability assay)
# Format: cell-based
# test_conditions: human dermal papilla cells (ScienCell, 2499); drug 0 to 30 μM; 48 hours; CellTiter-Glo luminescence; compared to DMSO-treated control group
Classes by Maximum DP cell proliferation (%): low group: < 5%; middle group: ≥ 5% and < 8%; high group: ≥ 8%

Consider the following illustrative entries.
[
  {
    "molecule": "CNc1n[nH]c2nc(Nc3cccc4c3CCC4)c(F)cc12 [Compound 102]",
    "answer_label": "high group"
  },
  {
    "molecule": "COC(=O)CNc1n[nH]c2nc(Nc3cccc4c3CCC4)c(F)cc12 [Compound 101]",
    "answer_label": "high group"
  },
  {
    "molecule": "N#Cc1cccc(Nc2nc3[nH]nc(N)c3cc2F)c1F [Compound 79]",
    "answer_label": "low group"
  },
  {
    "molecule": "Nc1n[nH]c2nc(Nc3cccc(F)c3C(F)(F)F)c(F)cc12 [Compound 62]",
    "answer_label": "middle group"
  }
]

Prompt line: Looking at Cc1cccc(Nc2nc3[nH]nc(N)c3cc2F)c1C [Compound 12] , which class would you pick?
Response line: middle group

Prompt line: Looking at CN(C)c1n[nH]c2nc(Nc3cccc4c3CCC4)c(F)cc12 [Example 105] , which class would you pick?
Response line: high group

Prompt line: Looking at Cc1c(Cl)c(Nc2cccc3c2CCC3)nc2[nH]nc(N)c12 [Compound 17] , which class would you pick?
Response line: middle group

Prompt line: Looking at CS(=O)(=O)Nc1n[nH]c2nc(Nc3cccc4c3CCC4)c(F)cc12 [Example 106] , which class would you pick?
Response line: low group
